- SYSTEM_UNDER_TEST: Rat recombinant DYRK1A (Rattus norvegicus)
- ASSAY_METHOD_TEXT: Assaying of the kinase activity of DYRK1A (33P-ATP, myelin basic protein, P81 filter);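 note: GST fusion rat DYRK1A made in E. coli, scintillation counting of label bound to substrate, activity as percent of the inhibitor-free maximum after blank subtraction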
- Format: biochemical
- SETUP_CONDITIONS: 15 μM ATP, 30° C., 30 min; read-out: IC50 DYRK1A
MEASUREMENT_TYPE: IC50

Worked examples follow.
{"COMPOUND": "COCCSC1=N/C(=C\\c2ccc3c(c2)OCO3)C(=O)N1C [SA197]", "IC50": "2.5 µM"}
{"COMPOUND": "CSC1=N/C(=C\\c2ccc3c(c2)OCO3)C(=O)N1 [ST105]", "IC50": "0.68 µM"}
{"COMPOUND": "CSC1=N/C(=C\\c2ccccc2)C(=O)N1C [JR158]", "IC50": "> 10 µM"}
{"COMPOUND": "CC(C)NC1=N/C(=C\\c2ccccc2)C(=O)N1C [FC095]", "IC50": "> 10 µM"}
{"COMPOUND": "CCCCNC1=N/C(=C\\c2ccc3c(c2)OCO3)C(=O)N1CCCC [FCJR464]", "IC50": "> 10 µM"}

For every item in the list below, what is its measured IC50?
1. CN1C(=O)/C(=C/c2cc(Br)c3c(c2)OCO3)NC1=S [ST341]
2. CSC1=N/C(=C\c2ccccc2O)C(=O)N1C [JR159]

Response given:
["> 10 µM", "> 10 µM"]
